What pKi was measured for each of the following?
biological target: PSMA (Homo sapiens); construct: endogenous in cells; host or cells: LNCaP cell lysate; test: PSMA inhibition assay (fluorescence-based, NAAG hydrolysis, Amplex Red); assay type: biochemical; conditions: lysates of LNCaP cell extracts, 4 μM NAAG, Cheng-Prusoff conversion
Sequence (Q04609 whole entry): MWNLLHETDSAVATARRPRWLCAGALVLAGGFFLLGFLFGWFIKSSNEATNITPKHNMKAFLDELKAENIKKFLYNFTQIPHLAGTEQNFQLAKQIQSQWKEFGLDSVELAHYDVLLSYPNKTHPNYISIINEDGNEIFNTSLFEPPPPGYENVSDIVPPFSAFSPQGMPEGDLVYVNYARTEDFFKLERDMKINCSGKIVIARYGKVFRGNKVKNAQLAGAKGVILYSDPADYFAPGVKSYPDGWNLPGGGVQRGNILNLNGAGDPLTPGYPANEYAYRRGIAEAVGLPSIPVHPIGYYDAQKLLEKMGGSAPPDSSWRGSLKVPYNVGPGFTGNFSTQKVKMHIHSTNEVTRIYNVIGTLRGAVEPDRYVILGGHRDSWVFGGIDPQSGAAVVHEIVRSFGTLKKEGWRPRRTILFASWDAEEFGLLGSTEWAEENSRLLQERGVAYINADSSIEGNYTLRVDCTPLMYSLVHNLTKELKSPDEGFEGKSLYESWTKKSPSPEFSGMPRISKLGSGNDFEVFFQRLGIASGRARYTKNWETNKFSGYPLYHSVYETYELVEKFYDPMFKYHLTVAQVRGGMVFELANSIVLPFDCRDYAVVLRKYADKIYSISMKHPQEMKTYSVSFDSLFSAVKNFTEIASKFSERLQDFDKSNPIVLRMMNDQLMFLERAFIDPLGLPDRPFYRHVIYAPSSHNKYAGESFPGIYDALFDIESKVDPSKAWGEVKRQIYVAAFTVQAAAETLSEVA
Give bare numbers, as −log10 of the molar value.

O=C([O-])CN1CCN(CC(=O)[O-])CC(Cc2ccc(NC(=S)NCCCCC(NC(=O)CCCCCCC(=O)NCCCCC(NC(=O)NC(CCC(=O)O)C(=O)O)C(=O)O)C(=O)O)cc2)N(CC(=O)[O-])CC1.[Ga+3] (centres unmarked) [Ga-2] | 9.42

Please give pKi for each item listed below.
1. O=C([O-])CN1CCN(CC(=O)[O-])CCN(CC(=O)NC(Cc2ccccc2)C(=O)NC(Cc2ccccc2)C(=O)NC(CCCCNC(=O)CCCCCCC(=O)NCCCCC(NC(=O)NC(CCC(=O)O)C(=O)O)C(=O)O)C(=O)O)CCN(CC(=O)[O-])CC1.[Ga+3] (centres unmarked) [Ga-1]
2. O=C(O)CCC(NC(=O)NC(CCCCNC(=O)CCCCCCC(=O)NC(CCCCNC(=S)Nc1ccc(CC2CN(CC(=O)O)CCN(CC(=O)O)CCN2CC(=O)O)cc1)C(=O)O)C(=O)O)C(=O)O (centres unmarked) [Compound 2]
3. O=C(O)CCc1ccc(O)c(CN(CCN(CC(=O)O)Cc2cc(CCC(=O)NCCCCCC(=O)NCCCC[C@H](NC(=O)N[C@@H](CCC(=O)O)C(=O)O)C(=O)O)ccc2O)CC(=O)O)c1 [DKFZ-PSMA-11, Glu-urea-Lys-(Ahx)-HBED-CC, reference compound]
4. O=C(O)CCC(NC(=O)NC(CCCCNC(=O)CCCCCCC(=O)NCCCCC(NC(=O)C(Cc1ccccc1)NC(=O)C(Cc1ccccc1)NC(=O)CN1CCN(CC(=O)O)CCN(CC(=O)O)CCN(CC(=O)O)CC1)C(=O)O)C(=O)O)C(=O)O (centres unmarked) [Compound 1]

1. 9.48
2. 9.09
3. 10.52
4. 9.15

The measured values listed here are drawn from patent US10717750B2.
